Test system: ART (antigen-responding T-cell)
Assay: In vitro ART (antigen-responding T-cell) proliferation test
Type: cell-based, Lewis rat
Conditions: Rattus norvegicus, T-cell, 10 μM; read-out: % Inhibition of ART growth
Counter-ions that a name gives are not always drawn.
measured quantity: inhibition at 10 µM (%)
The answer is to be given in %; state only the numeric part.

O=c1c2ccccc2n(CCCCSc2ccncc2)c(=O)n1CCCCSc1ccncc1 [Example 147] ... 72

Query: Give the reported value of inhibition at 10 µM for this record: CC(C)(CSc1ccncc1)CN1C(=O)c2ccccc2C1=O [Example 145]
Result: -42

Query: Query inhibition at 10 µM for O=C1CSC(=S)N1CCCCSc1ccncc1 [Example 163, 4-(4-rhodaninebutylthio)pyridine]
Result: 99

Query: # return recorded inhibition at 10 µM for entry O=C1c2ccccc2CN1CCCCSc1ccncc1 [Example 109]
Result: -33

Query: State, in one line, measured inhibition at 10 µM of CCCCOc1ccc(C(=O)NCCCSc2ccncc2)cc1 [Example 35, hydrochloride]
Result: 33

Query: Identify the reported inhibition at 10 µM for the following entry. COc1ccc(C=C2SC(=O)N(CCCCSc3ccncc3)C2=O)cc1 [Example 152]
Result: 68

Query: Provide measured inhibition at 10 µM value, entry: CCCCCCCCCCCCN(CCCSc1ccncc1)C(=O)C(F)(F)F [Example 94]
Result: 70

Query: State, in one line, measured inhibition at 10 µM of O=C1SC(=Cc2ccccc2)C(=O)N1CCCSc1ccncc1 [Example 154]
Result: 27

Query: Check the records and state inhibition at 10 µM for CC(C)(C)C(=O)NCCCSc1ccncc1.Cl [Example 24, hydrochloride]
Result: 35

Query: Give a short answer stating reported inhibition at 10 µM for O=c1c2ccccc2oc(=S)n1CCCCSc1ccncc1 [Example 162] .
Result: -54

Query: # return recorded inhibition at 10 µM for input O=C(NCCCOc1ccncc1)c1ccccc1CO [Example 100]
Result: 32

Query: // Input: CCCC=C1SC(=O)N(CCCCSc2ccncc2)C1=O [Example 171] . Output its inhibition at 10 µM only.
Result: 41

Query: State its inhibition at 10 µM for this compound: O=c1c2ccccc2n(Cc2ccccc2)c(=O)n1CCCCSc1ccncc1 [Example 149]
Result: 19

Query: In one line, give reported inhibition at 10 µM of the entry CC(=O)N(CCCSc1ccncc1)Cc1cccs1 [Example 90] .
Result: 49

Query: Supply measured inhibition at 10 µM of CCCCc1ccc(C(=O)NCCCSc2ccncc2)cc1 [Example 34, hydrochloride] in your reply.
Result: 47

----------
System: Mouse phenylquinone writhing
Assay: Mouse phenylquinone writhing inhibitory activity
Type: in vivo, mouse (Slc: ICR)
Details: Mus musculus, po, 20 min, 50 mg/kg, orally; read-out: Inhibitory percentage (phenylquinone writhing)
Counter-ions that a name gives are not always drawn.
Some compounds, each annotated with its measured inhibition in vivo at 50 mg/kg.
Give the number; % is assumed, so skip it.

Some solved cases for reference:
O=C(NCCCSc1ccncc1)c1cc2ccccc2s1 ... 71
O=C1c2ccccc2C(=O)N1CSc1cccnc1 ... 56
O=C1c2ccccc2C(=O)N1COc1ccncc1 ... 80
O=C(NCCCSc1cccnc1)c1cccs1 [Example 48, 3-[3-(thenoylamino)propylthio]pyridine] ... 31

Query: # lookup: Mouse phenylquinone writhing inhibition in vivo at 50 mg/kg, key = `O=C(NCCCSc1ccncc1)c1cc(Br)c(Br)s1`
Result: 34

Query: // fetch inhibition in vivo at 50 mg/kg; item: `CCCCCCCCCC(=O)NCCCOc1ccncc1` ; system: Mouse phenylquinone writhing
Result: 41

Query: Report the value of inhibition in vivo at 50 mg/kg obtained on Mouse phenylquinone writhing for `Cc1ccc(C(=O)NCCCSc2ccncc2)s1` .
Result: 49

Query: Tell me inhibition in vivo at 50 mg/kg of CCCCOc1ccc(C(=O)NCCCSc2ccncc2)cc1 [Example 35, hydrochloride] when tested on Mouse phenylquinone writhing.
Result: 60

Query: Jot down inhibition in vivo at 50 mg/kg (Mouse phenylquinone writhing) of O=C(NCCCSc1ccncc1)c1ccccc1 [Example 40, 4-[3-(benzoylamino)propylthio]pyridine] .
Result: 45

----------
Listed molecules paired with reported pIC50
Molecular target: UniProt:Q63921
Sequence (Q63921 27-602): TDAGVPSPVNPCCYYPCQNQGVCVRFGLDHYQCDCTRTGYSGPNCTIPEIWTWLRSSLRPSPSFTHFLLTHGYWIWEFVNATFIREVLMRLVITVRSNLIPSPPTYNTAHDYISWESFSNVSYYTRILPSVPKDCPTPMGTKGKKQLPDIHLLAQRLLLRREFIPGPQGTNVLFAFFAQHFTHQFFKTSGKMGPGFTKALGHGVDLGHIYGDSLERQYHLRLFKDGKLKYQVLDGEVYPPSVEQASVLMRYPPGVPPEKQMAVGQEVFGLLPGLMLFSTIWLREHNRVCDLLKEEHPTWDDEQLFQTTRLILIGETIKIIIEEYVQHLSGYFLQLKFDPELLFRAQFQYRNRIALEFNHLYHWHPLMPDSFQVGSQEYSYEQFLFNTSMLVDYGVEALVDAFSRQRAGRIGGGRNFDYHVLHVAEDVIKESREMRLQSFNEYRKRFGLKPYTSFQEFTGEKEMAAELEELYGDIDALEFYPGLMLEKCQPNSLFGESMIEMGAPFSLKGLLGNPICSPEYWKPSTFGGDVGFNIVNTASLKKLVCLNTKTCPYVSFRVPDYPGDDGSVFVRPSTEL
Test: Cyclooxygenase inhibitory activity (HHT formation from arachidonic acid in rat platelet-rich plasma)
Units for pIC50: none; it is -log10 of a concentration expressed in mol/L.

Recorded pIC50, per entry:
O=C(c1ccccc1)N(CCCSc1ccncc1)Cc1ccccn1 ... 5.17
O=C(NCCCSc1ccncc1)c1ccccc1 [Example 40, 4-[3-(benzoylamino)propylthio]pyridine] ... 5.12
O=C(NCCCOc1ccccn1)c1cccs1 [Example 61, 2-[3-(2-thenoylamino)propyloxy]pyridine] ... 4.96

Query: Using the record for Cl.O=C(c1ccccc1)N(CCCSc1ccncc1)Cc1cccs1 [Example 93, hydrochloride] , state its measured pIC50.
Result: 5.20

Query: Indicate the recorded pIC50 value for this molecule: `Cn1cccc1C(=O)NCCCSc1ccncc1`
Result: 5.18

----------
System: ART (antigen-responding T-cell)
Assay: In vitro ART (antigen-responding T-cell) proliferation test
Format: cell-based, Lewis rat
Conditions: Rattus norvegicus, T-cell, 10 μM; read-out: % Inhibition of ART growth
Counter-ions that a name gives are not always drawn.
Use inhibition at 10 µM to assign classes; range list: low: < 10%; medium: ≥ 10% and < 70%; high: ≥ 70%

Some solved entries appear below for comparison.
O=C1SC(=Cc2cccs2)C(=O)N1CCCCSc1ccncc1 ... medium
O=C1c2ccccc2CN1CCSc1ccncc1 ... low
CC(C)(C)c1ccc(C(=O)NCCCSc2ccncc2)cc1 [Example 32, hydrochloride] ... medium
O=C1SC(=Cc2ccccc2)C(=O)N1CCCCSc1ccccn1 ... low
O=C1SC(=Cc2ccccc2)C(=O)N1CCCCSc1ccncc1 ... high

Query: // return the class label for Cl.O=C(c1ccccc1)N(CCCSc1ccncc1)Cc1cccs1 [Example 93, hydrochloride]
Result: medium

Query: Classify this compound: O=C1c2ccccc2C(O)N1CSc1ccncc1 (stereo not drawn)
Result: medium

Query: Entry Cl.O=C(N(CCCSc1ccncc1)Cc1ccccc1)C(F)(F)F [Example 73, hydrochloride] belongs to which category?
Result: high

Query: Hi there! Could you help me figure out the category for `CC(=O)N(CCCSc1ccncc1)Cc1ccccc1` please?
Result: medium

Query: Could you tell me which band O=C1c2ccccc2C(O)N1CCCSc1ccncc1 (stereo not drawn) belongs to?
Result: low

Query: Place this compound in its band: `O=C(NCCSc1ccncc1)c1cc2ccccc2s1`
Result: medium

Query: For the record `O=C1SC(=Cc2ccc(Cl)cc2)C(=O)N1CCCCSc1ccncc1` , report the class its inhibition at 10 µM corresponds to.
Result: high

----------
System: Mouse phenylquinone writhing
Test: Mouse phenylquinone writhing inhibitory activity
Format: in vivo, mouse (Slc: ICR)
Conditions: Mus musculus, po, 20 min, 50 mg/kg, orally; read-out: Inhibitory percentage (phenylquinone writhing)
Each record here notes measured inhibition in vivo at 50 mg/kg.
Quick note: give the figure in %, leave out the unit.

Cl.O=C(N(CCCSc1ccncc1)Cc1ccccc1)C(F)(F)F [Example 73, hydrochloride] ... 75

Query: State its inhibition in vivo at 50 mg/kg for this compound: CC(=O)N(CCCSc1ccncc1)Cc1cccs1 [Example 90]
Result: 53

Query: State, in one line, measured inhibition in vivo at 50 mg/kg of O=C1c2ccccc2C(=O)N1CSc1ccccn1 [Example 64, 2-(phthalimidomethylthio)pyridine]
Result: 56

Query: Note inhibition in vivo at 50 mg/kg for the compound shown: O=C(NCCCSc1ccccn1)c1cccs1 [Example 47, 2-[3-(thenoylamino)propylthio]pyridine]
Result: 47

----------
Tested on: ART (antigen-responding T-cell)
Assay: In vitro ART (antigen-responding T-cell) proliferation test
Assay type: cell-based, Lewis rat
Conditions: Rattus norvegicus, T-cell, 10 μM; read-out: % Inhibition of ART growth
measured quantity: inhibition at 10 µM
Hey, just the number and the unit after it is fine.

Study these solved cases before continuing.
CC1(C)NC(=O)N(CCCCSc2ccncc2)C1=O [Example 140] ... -25%
O=C(c1ccccc1)N(CCSc1ccncc1)Cc1ccccc1 [Example 120] ... 74%

Query: Report inhibition at 10 µM on ART (antigen-responding T-cell) for this entry: O=C1c2ccccc2CN1CCCSc1ccncc1 [Example 111]
Result: -12%
